- System: NCI-H650 (Lung Adenocarcinoma);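 further: after 72 h of two-drug dosing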
- PROCEDURE_TEXT: Bliss excess, mean over the matrix (fraction); higher = more synergy
The entries below are paired with their reported Bliss excess.
ENDPOINT_LABEL: Bliss excess

>>> value_measured("COc1cccc(OCCCN)c1-c1cc(Nc2cnc(C#N)cn2)n[nH]1 [Prexasertib] + C[C@@H]1COCCN1C2=NC(=NC(=C2)C3(CC3)[S@](=N)(=O)C)C4=C5C=CNC5=NC=C4 [AZD6738] (first compound max 1 µM, 7x7, partner max 10 µM)")
-0.0278
>>> value_measured("Cc1c2c(nn1C)CSCc1cc(n(C)n1)CSc1cc(c3ccccc3c1)OCCCc1c(C(=O)O)n(C)c3c-2c(Cl)ccc13 [AZD5991] + C=CCn1c(=O)c2cnc(Nc3ccc(N4CCN(C)CC4)cc3)nc2n1-c1cccc(C(C)(C)O)n1 [AZD1775] (first compound max 1 µM, partner max 1 µM)")
0.0397
>>> value_measured("Cc1c2c(nn1C)CSCc1cc(n(C)n1)CSc1cc(c3ccccc3c1)OCCCc1c(C(=O)O)n(C)c3c-2c(Cl)ccc13 [AZD5991] + C[C@@H]1COCCN1C2=NC(=NC(=C2)C3(CC3)[S@](=N)(=O)C)C4=C5C=CNC5=NC=C4 [AZD6738] (first compound max 1 µM, 7x7, partner max 10 µM)")
0.0217
>>> value_measured("Cn1cnc2c(F)c(Nc3ccc(Br)cc3Cl)c(C(=O)NOCCO)cc21 [Selumetinib] + C[C@@H]1COCCN1C2=NC(=NC(=C2)C3(CC3)[S@](=N)(=O)C)C4=C5C=CNC5=NC=C4 [AZD6738] (first compound max 10 µM, 7x7, partner max 10 µM)")
0.0926
>>> value_measured("NC1(C(=O)N[C@@H](CCO)c2ccc(Cl)cc2)CCN(c2ncnc3[nH]ccc23)CC1 [Capivasertib] + CC(C)n1c(=O)n(C)c2cnc3cc(F)c(-c4ccc(OCCCN5CCCCC5)nc4)cc3c21 [AZD1390] (first compound max 10 µM, 7x7, partner max 0.3 µM)")
-0.0899
